Entry source: PubChem BioAssay (NCI)

- Test system: OVCAR-3 ovarian
- EXPERIMENT SUMMARY: NCI-60 one-dose screen, 48 h
- EXPERIMENTAL SETUP: 10 µM unless noted
The panel holds about 83,000 compounds, 20% with a hit somewhere; the sample as a whole holds those more often. Active and inactive are the calls of the source. How the source made its calls: active means growth percent below 10; inactive means the rest.
The categories you may choose from are yes (1) = active, no (0) = inactive

{"MOLECULE": "O=C(N/N=C/c1ccc(Cl)cc1)c1cc(-c2cc3ccccc3o2)nn1-c1ccccc1", "TGT": "OVCAR-3 ovarian", "LABEL": "no (0)"}
{"MOLECULE": "O=C(NCCO)Nc1ccc(-c2nc(N3CCOCC3)c3cccn3n2)cc1", "TGT": "OVCAR-3 ovarian", "LABEL": "yes (1)"}

# input Dear colleague, could you share the recorded outcome for O=C(Cc1ccc(/C=C/C(=O)c2ncc[nH]2)cc1)Nc1ccc(S(F)(F)(F)(F)F)cc1 when you have a moment?
# output no (0)

# input Dear colleague, could you share the recorded outcome for COC(=O)CC[C@@H](C)[C@H]1CC[C@H]2C3CC[C@@H]4C[C@@H]5CC[C@]4(C)[C@@]3(O5)[C@H](Br)[C@@H](Br)[C@]12C (some centres undefined) when you have a moment?
# output no (0)

====

- Test system: LOX IMVI melanoma
- EXPERIMENT SUMMARY: NCI-60 one-dose screen, 48 h (100 = growth as untreated, 0 = no growth, -100 = all killed)
- EXPERIMENTAL SETUP: 10 µM unless noted
About 83,000 compounds went through this panel and 20% of them were active in at least one assay; those are over-represented in the sample as a whole. Calls of active or inactive are those of the source. The calls were made as follows: active = growth percent below 10; inactive = the rest.
growth reference

# input Requested read-out growth, target or system LOX IMVI melanoma, entry Cc1ccccc1Nc1nc2nonc2nc1Nc1cccc(C)c1C
# output 54% (inactive)

# input Requested read-out growth, target or system LOX IMVI melanoma, entry CCn1c(-c2nonc2N)nc2c(C#CC(C)(C)O)ncc(OC[C@H]3CCCNC3)c21
# output 44.1% (inactive)

# input Requested read-out growth, target or system LOX IMVI melanoma, entry CCOc1ccc(N=C(C)Nc2ccc(OCC)cc2)cc1
# output 102% (inactive)

# input Requested read-out growth, target or system LOX IMVI melanoma, entry Cc1c(NC(=O)OC[C@@H]2COCCN2)cn2ncnc(Nc3ccc4c(cnn4Cc4cccc(F)c4)c3)c12
# output -11% (active)

# input Requested read-out growth, target or system LOX IMVI melanoma, entry COc1ccc(S(=O)(=O)N(C(C)=O)c2ccccc2/C=C/c2cc[n+]([O-])cc2)cc1
# output 18% (inactive)

# input Requested read-out growth, target or system LOX IMVI melanoma, entry Clc1ccc(C(Cn2ccnc2)OCc2ccsc2Cl)c(Cl)c1 (stereo not given)
# output 43.7% (inactive)

# input Requested read-out growth, target or system LOX IMVI melanoma, entry CCCCCC(=O)OCc1ccc(Cl)c(Cl)c1
# output 96% (inactive)

# input Requested read-out growth, target or system LOX IMVI melanoma, entry COc1ccc(Cl)c(Nc2nc3ccccc3nc2NS(=O)(=O)c2cccc(NC(=O)C(C)(C)N)c2)c1
# output 25.8% (inactive)

# input Requested read-out growth, target or system LOX IMVI melanoma, entry N#Cc1cc2[nH]c3ccc(OC(F)(F)F)cc3c2oc1=O
# output 74.5% (inactive)

# input Requested read-out growth, target or system LOX IMVI melanoma, entry C/C(=N\NC(=O)Cn1c(-c2ccc(S(C)(=O)=O)cc2)nc2ccccc21)c1ccc(Cl)cc1
# output 100% (inactive)

====

- Tested on: OVCAR-4 ovarian
- EXPERIMENT SUMMARY: NCI-60 one-dose screen, 48 h (100 = growth as untreated, 0 = no growth, -100 = all killed)
- EXPERIMENTAL SETUP: 10 µM unless noted
Compounds without any hit were thinned out: in the full panel of roughly 83,000, 20% have a hit.
Outcome: 1 for growth of at least 50%; -1 for anything lower.

# input Is it the case that CCOc1cccc(/C=N/NC(=O)c2ccccc2Nc2ccnc(C(F)(F)F)c2)c1O has growth reaching or exceeding 50%?
# output -1

# input Is it the case that Cc1nc2cc(-c3nn(C(C)C)c4ncnc(N)c34)ccc2o1 has growth reaching or exceeding 50%?
# output -1

====

- System: CAKI-1 renal
- EXPERIMENT SUMMARY: NCI-60 one-dose screen, 48 h (100 = growth as untreated, 0 = no growth, -100 = all killed)
- EXPERIMENTAL SETUP: 10 µM unless noted
Compounds without any hit were thinned out: in the full panel of roughly 83,000, 20% have a hit.
Outcome: Condition met for growth of at least 80%; Condition not met for anything lower.

Examples from the recorded data:
{"COMPOUND": "COC(=O)Nc1nc2ccc(C(=O)c3ccc(N(C)C4COC4)cc3)cc2[nH]1", "LABEL": "Condition not met"}
{"COMPOUND": "Cc1cc(O)c2c(c1)C1OC(=O)CCCCCN1C1=C2C(=O)c2cccc(OC3CC(O)C(O)C(C)O3)c2C1=O (stereo not drawn)", "LABEL": "Condition met"}

# input Is it the case that CC1=CC2c3oc(-c4ccccc4)c(C(=O)c4ccccc4)c3CNC2C=C1 (stereo not drawn) has growth reaching or exceeding 80%?
# output Condition met

# input Is it the case that Cn1cc(-c2[nH]c3cc(NC(=O)[C@H](N)C4CCCCC4)cc4c3c2C=NNC4=O)cn1 has growth reaching or exceeding 80%?
# output Condition not met

# input Is it the case that C[C@@H]1COCCN1c1cc(C2([S@](C)(=N)=O)CC2)nc(-c2ccnc3[nH]ccc23)n1 has growth reaching or exceeding 80%?
# output Condition not met

# input Is it the case that Cn1ccnc1C(=O)/C=C/c1ccc(CC(=O)Nc2ccc(C(F)(F)F)cc2)cc1 has growth reaching or exceeding 80%?
# output Condition not met

# input Is it the case that COC(=O)[C@]12CC[C@@H](C)[C@H](C)[C@@H]1C1=CC[C@@H]3[C@@]4(C)C(C=O)=C[C@@](C)(COS(C)(=O)=O)C4=CC[C@@]3(C)[C@]1(C)CC2 has growth reaching or exceeding 80%?
# output Condition not met

====

- Test system: SF-268 CNS
- EXPERIMENT SUMMARY: NCI-60 one-dose screen, 48 h (100 = growth as untreated, 0 = no growth, -100 = all killed)
- EXPERIMENTAL SETUP: 10 µM unless noted
This is part of a sample that, as a whole, favours compounds with a hit. Of some 83,000 tested, about 20% had one in any assay.
growth reference
Write it as a number; the unit % goes unstated.

{"COMPOUND": "O=C(O)C1(Cc2cccc(Nc3nccs3)n2)CCC(Oc2cccc(Cl)c2F)CC1 (stereo not given)", "VALUE KIND": "growth", "ENDPOINT VALUE": 61.6}
{"COMPOUND": "O=C(c1ccc(F)c(F)c1Nc1ccc(I)cc1F)N1CC(O)([C@@H]2CCCCN2)C1", "VALUE KIND": "growth", "ENDPOINT VALUE": 44.6}
{"COMPOUND": "Cc1nn(-c2ccccc2)c2c1N=c1s/c(=C\\c3cn(-c4ccccc4)nc3-c3ccc(Cl)cc3)c(=O)n1C(C)N2 (stereo not given)", "VALUE KIND": "growth", "ENDPOINT VALUE": 91}

# input Which growth is reported for this compound? COc1ncc(-c2ccc3nccc(-c4ccnnc4)c3c2)cc1NS(=O)(=O)c1ccc(F)cc1F
# output 6.46

# input Which growth is reported for this compound? Ic1ccccc1-c1ccccc1
# output 105

# input Which growth is reported for this compound? Nc1c(C(=O)c2ccccc2)sc2nc(-c3cccs3)cc(-c3cccs3)c12
# output 53.5

# input Which growth is reported for this compound? COc1cc2ncnc(Nc3cccc(Cl)c3F)c2cc1OC(=O)N1CCN(C)C[C@H]1C
# output 73.4

# input Which growth is reported for this compound? Cc1cc2c(-c3nc4ccccn4c3Nc3cccc4ccccc34)c(O)c(O)cc2c(O)c1-c1c(C)cc2c(-c3nc4ccccn4c3Nc3cccc4ccccc34)c(O)c(O)cc2c1O
# output 30.9

# input Which growth is reported for this compound? COc1c(OCCCN2CCOCC2)ccc2c3n(c(=NC(=O)c4cnc(N)nc4)nc12)CCN3
# output 24.6

# input Which growth is reported for this compound? CN1CCC(CNc2ccc3ncc(-c4cccc(OC(F)(F)F)c4)n3n2)CC1
# output -33.1

====

- Test system: SK-OV-3 ovarian
- EXPERIMENT SUMMARY: NCI-60 one-dose screen, 48 h (100 = growth as untreated, 0 = no growth, -100 = all killed)
- EXPERIMENTAL SETUP: 10 µM unless noted
About 83,000 compounds went through this panel and 20% of them were active in at least one assay; those are over-represented in the sample as a whole.
Heads up, the class ranges for growth are low bracket: < 40%; middle bracket: ≥ 40% and < 90%; high bracket: ≥ 90%

Examples from the recorded data:
{"COMPOUND": "C[C@@H]1COC(Nc2ccc3ncnc(Nc4ccc(OCc5nccs5)c(Cl)c4)c3c2)=N1", "TGT": "SK-OV-3 ovarian", "LABEL": "low bracket"}
{"COMPOUND": "COc1cc(-c2cc(-c3ccc(Nc4ccnc5cc(Cl)ccc45)cc3)nc(N3CCOCC3)n2)cc(OC)c1OC", "TGT": "SK-OV-3 ovarian", "LABEL": "high bracket"}

# input Class label required: O=C(c1ccc(/C=C/c2n[nH]c3ccccc23)cc1)N1CCNCC1
# output middle bracket

# input Class label required: CC(=O)OC(C(=O)c1ccccc1)c1ccccc1 (stereo not given)
# output high bracket

# input Class label required: C[C@@H](N)c1ccc(C(=O)Nc2ccnc3[nH]ccc23)cc1
# output low bracket
